In this section we review reported cell viability values for a set of molecules.
Test system: NOMO1
assay notes: cell viability relative to DMSO control; higher = less cytotoxic
condition notes: RPMI 5 mM glucose + 10% FBS; 48 h; 0.569 µM
observation type: cell viability (%)

smiles_input=CN(C)CCOC(c1ccccc1)c1ccccc1 observation_type="cell viability" unit_name=% value_reported=115
smiles_input=Cc1c[nH]c(/C=C2\C(=O)Nc3ccccc32)c1CCC(=O)O observation_type="cell viability" unit_name=% value_reported=121
smiles_input=C[C@@H](c1ncncc1F)[C@](O)(Cn1cncn1)c1ccc(F)cc1F observation_type="cell viability" unit_name=% value_reported=126
smiles_input=Cc1ccc(-n2nc(C(C)(C)C)cc2NC(=O)Nc2ccc(OCCN3CCOCC3)c3ccccc23)cc1 observation_type="cell viability" unit_name=% value_reported=107
smiles_input=CCC[C@@H]1C[C@@H](C(=O)N[C@@H]([C@H]2O[C@H](SC)[C@H](O)[C@@H](O)[C@H]2O)[C@@H](C)O)N(C)C1.Cl observation_type="cell viability" unit_name=% value_reported=124

###

Tested on: NOMO1
assay notes: cell viability relative to DMSO control; higher = less cytotoxic
condition notes: RPMI 5 mM glucose + 10% FBS; 48 h; 0.00234 µM
observation type: cell viability (%)

molecule="COCCOC(=O)C/1=C(C)/NC/2=C(C1C3=CC=CC(=C3)O)/C(=O)CC(C2)C4=C(OC)C=CC=C4 (centres undefined)" observation_type="cell viability" value_reported=89.6
molecule=Cl.c1cnc2cc3c(cc2n1)C1CNCC3C1 observation_type="cell viability" value_reported=105
molecule=Cc1cc(Nc2ncc(Cl)c(Nc3ccccc3[S+](=O)([O-])C(C)C)n2)c(OC(C)C)cc1C1CCNCC1 observation_type="cell viability" value_reported=113
molecule=COC[C@H](NC(=O)c1cnc(C)s1)C(=O)N[C@@H](COC)C(=O)N[C@@H](Cc1ccccc1)C(=O)[C@@]1(C)CO1 observation_type="cell viability" value_reported=108
molecule=O=C(O)[C@H](Cc1c[nH]c2ccccc12)N1C(=O)c2ccccc2C1=O observation_type="cell viability" value_reported=83.3
molecule=Cc1cc(O)c2c3c4c(cc(O)c13)C(C)(C)C(=O)c1c(O)cc(O)c(c1-4)C2=O observation_type="cell viability" value_reported=109
molecule=Clc1ccc(C2(c3ccc(-c4cn[nH]c4)cc3)CCNCC2)cc1 observation_type="cell viability" value_reported=81.3
molecule=CC(=O)N1CCN(c2ccc(OCc3nn(C)c(C)c3-c3cccc4c(CCCOc5cc(C)c(Cl)c(C)c5)c(C(=O)O)n(Cc5cccnc5)c34)cc2)CC1 observation_type="cell viability" value_reported=115
molecule="CCCCN(CCCC)CCC(O)c1cc2c(Cl)cc(Cl)cc2c2cc(C(F)(F)F)ccc12 (centres undefined)" observation_type="cell viability" value_reported=111

###

Tested on: SEM cells
assay notes: cell viability relative to DMSO control; higher = less cytotoxic
condition notes: HPLM + 10% dialyzed FBS; 48 h; 1.71 µM
In this section we review reported cell viability values for a set of compounds.
observation type: cell viability (%)

compound=Clc1ccc(C2(c3ccc(-c4cn[nH]c4)cc3)CCNCC2)cc1 value_reported=87.4
compound="CCOC(=O)C/1=C(C)/NC(=S)NC1C2=CC=CC(=C2)O (stereo not drawn)" value_reported=22.4
compound=COc1cc(N2CCC(C(N)=O)CC2)ccc1Nc1nc(N)c(Cl)c(Nc2ccccc2[S+](=O)([O-])C(C)C)n1 value_reported=84.1

###

In this section we review reported cell viability values for a set of compounds.
Tested on: P12-Ichikawa
assay notes: cell viability relative to DMSO control; higher = less cytotoxic
condition notes: HPLM + 10% dialyzed FBS; 48 h; 1.71 µM
observation type: cell viability (%)

compound=O=C1c2c(O)cccc2[C@H]([C@@H]2O[C@H](CO)[C@@H](O)[C@H](O)[C@H]2O)c2cc(CO)cc(O)c21 observation_type="cell viability" value_reported=99.4
compound=CNC(=O)[C@H](Cc1ccccc1)NC(=O)[C@H](CC(C)C)[C@H](CSc1cccs1)C(=O)NO observation_type="cell viability" value_reported=82.9
compound=Cc1cc(Nc2ncc(Cl)c(Nc3ccccc3[S+](=O)([O-])C(C)C)n2)c(OC(C)C)cc1C1CCNCC1 observation_type="cell viability" value_reported=105
compound=COc1cc2nccc(Oc3ccc(NC(=O)Nc4cc(C)on4)c(Cl)c3)c2cc1OC observation_type="cell viability" value_reported=119
compound="O=C1CSC(=O)N1C(CCc1ccncc1)COc1ccc(-c2cccc([N+](=O)[O-])c2)cc1 (centres undefined)" observation_type="cell viability" value_reported=111
compound=O=C(Cc1cccc(OC(F)(F)F)c1)Nc1ccc(CCCCc2nnc(NC(=O)Cc3ccccn3)s2)nn1 observation_type="cell viability" value_reported=99.4
compound=NC(=O)N1c2ccccc2CC(=O)c2ccccc21 observation_type="cell viability" value_reported=128
compound=COC(=O)N1CCN(Cc2cccc(NC(=O)Nc3ccc(C)nc3)c2F)CC1 observation_type="cell viability" value_reported=94.1
compound=C[C@H]1CN(C[C@@H](C)O1)CC(=O)NC2=CC=C3SC4=C(CC3=C2)C=CC=C4\C5=C\C(=O)\C=C(/O5)N6CCOCC6 observation_type="cell viability" value_reported=108
compound=Fc1cc(-c2cccc3ncc(-c4cnn(C5CCNCC5)c4)nc23)cc(F)c1CN1CCOCC1 observation_type="cell viability" value_reported=113
compound=COc1cc2c(Nc3ccc(NC(=O)c4ccccc4)cc3)ncnc2cc1OCCCN1CCOCC1 observation_type="cell viability" value_reported=125
compound=O=[N+]([O-])c1cn2c(n1)OC[C@@H](OCc1ccc(OC(F)(F)F)cc1)C2 observation_type="cell viability" value_reported=111
compound=CC(C)(C)OC(=O)CN(Cc1ccc(Cl)cc1)Cc1ccc([N+](=O)[O-])s1 observation_type="cell viability" value_reported=96.5
compound=CCC(=O)O[C@@]1([C@@H](C)C[C@H]2[C@@H]3CCC/4=C/C(=O)/C=C\[C@]4(C)[C@@]3(F)[C@@H](O)C[C@]12C)C(=O)CCl observation_type="cell viability" value_reported=76.9

###

Test system: SEM cells
assay notes: cell viability relative to DMSO control; higher = less cytotoxic
condition notes: HPLM + 10% dialyzed FBS; 48 h; 0.0632 µM
In this section we review reported cell viability values for a set of molecules.
observation type: cell viability (%)

smiles_input=C[N]1C=NC=C1[C@@](N)(C2=CC=C(Cl)C=C2)C3=CC=C4N(C)C(=O)\C=C(\C5=CC=CC(=C5)Cl)C4=C3 observation_type="cell viability" unit_name=% value_reported=65.5
smiles_input=O=C(Cc1cccc(OC(F)(F)F)c1)Nc1ccc(CCCCc2nnc(NC(=O)Cc3ccccn3)s2)nn1 observation_type="cell viability" unit_name=% value_reported=107
smiles_input=C\C1=N\N=C(\C2=CC=C(N)C=C2)C3=CC4=C(OCO4)C=C3C1 observation_type="cell viability" unit_name=% value_reported=126
smiles_input=C=C(C)[C@@H]1CC[C@]2(C)CC[C@]3(C)[C@H](CC[C@@H]4[C@@]5(C)CC[C@H](O)C(C)(C)[C@@H]5CC[C@]43C)[C@@H]12 observation_type="cell viability" unit_name=% value_reported=89
smiles_input=CO[C@H]1C[C@@H]2CC[C@@H](C)[C@@](O)(O2)C(=O)C(=O)N2CCCC[C@H]2C(=O)O[C@H]([C@H](C)C[C@@H]2CC[C@@H](OP(C)(C)=O)[C@H](OC)C2)CC(=O)[C@H](C)/C=C(\C)[C@@H](O)[C@@H](OC)C(=O)[C@H](C)C[C@H](C)/C=C/C=C/C=C/1C observation_type="cell viability" unit_name=% value_reported=81.7

###

In this section we review reported cell viability values for a set of compounds.
Tested on: SEM cells
assay notes: cell viability relative to DMSO control; higher = less cytotoxic
condition notes: HPLM + 10% dialyzed FBS; 48 h; 0.000781 µM
observation type: cell viability (%)

compound=C[C@@H]1CC[C@@]2(OC1)O[C@H]3C[C@H]4[C@@H]5C/C=C6/C[C@H](CC[C@]6(C)[C@H]5CC[C@]4(C)[C@H]3[C@@H]2C)O[C@@H]7O[C@H](CO)[C@@H](O[C@@H]8O[C@@H](C)[C@H](O)[C@@H](O)[C@H]8O)[C@H](O)[C@H]7O[C@@H]9O[C@@H](C)[C@H](O)[C@@H](O)[C@H]9O observation_type="cell viability" unit_name=% value_reported=92.6
compound="CCCCN(CCCC)CCC(O)c1cc2c(Cl)cc(Cl)cc2c2cc(C(F)(F)F)ccc12 (centres undefined)" observation_type="cell viability" unit_name=% value_reported=92.5
compound=Fc1ccc(C(c2ccc(F)cc2)N2CCN(C/C=C/c3ccccc3)CC2)cc1 observation_type="cell viability" unit_name=% value_reported=113
compound=O=C([O-])Cc1ccccc1Nc1c(Cl)cccc1Cl observation_type="cell viability" unit_name=% value_reported=109

All values here come from the supplement of paper PMC11451515.
